Source listed as paper PMC8268887.

system: A. baumannii NMI 3658/17; format: cell-based, Acinetobacter baumannii; conditions: NMI 3658/17, 20 h
value kind: MIC, A. baumannii NMI 3658/17 (µg/mL)

[
  {
    "molecule": "NCCCC[C@H](NC(=O)CCN(Cc1ccc(F)cc1)C(=O)[C@H](CCCCN)NC(=O)CCOCCOCCOCCOCCNC(=O)CCN(Cc1ccc(F)cc1)C(=O)[C@H](CCCCN)NC(=O)CCN(Cc1ccc(F)cc1)C(=O)[C@H](CCCCN)NC(=O)CCOCCOCCOCCOCCNC(=O)CCN(Cc1ccc(F)cc1)C(=O)[C@H](CCCCN)NC(=O)CCN(Cc1ccc(F)cc1)C(=O)[C@@H](N)CCCCN)C(=O)N(CCC(N)=O)Cc1ccc(F)cc1 [Compound 18, H-[X]2-sPEG4-[X]2-sPEG4-[X]2-NH2]",
    "obs value": 16
  },
  {
    "molecule": "NCCCC[C@H](NC(=O)CCN(Cc1ccc(F)cc1)C(=O)[C@H](CCCCN)NC(=O)COCCNC(=O)CCN(Cc1ccc(F)cc1)C(=O)[C@H](CCCCN)NC(=O)CCN(Cc1ccc(F)cc1)C(=O)[C@H](CCCCN)NC(=O)COCCNC(=O)CCN(Cc1ccc(F)cc1)C(=O)[C@H](CCCCN)NC(=O)CCN(Cc1ccc(F)cc1)C(=O)[C@@H](N)CCCCN)C(=O)N(CCC(N)=O)Cc1ccc(F)cc1 [Compound 15, H-[X]2-sPEG1-[X]2-sPEG1-[X]2-NH2]",
    "obs value": 4
  }
]
